assay.name: Solubility of the compound in phosphate buffered saline at pH 7.4
Assay type: physicochemical
measure: solubility (µg/mL)
Answers are plain numbers, in µg/mL.

Reported solubility, compound CN1CCCC(n2nc(Cc3ccc(Cl)cc3)c3ccccc3c2=O)CC1.Cl (racemic) [AZELASTINE HYDROCHLORIDE] : ____
144

* * *

study.system: Alpha-1A adrenergic receptor (Homo sapiens, UniProt P35348)
Sequence (P35348 whole entry): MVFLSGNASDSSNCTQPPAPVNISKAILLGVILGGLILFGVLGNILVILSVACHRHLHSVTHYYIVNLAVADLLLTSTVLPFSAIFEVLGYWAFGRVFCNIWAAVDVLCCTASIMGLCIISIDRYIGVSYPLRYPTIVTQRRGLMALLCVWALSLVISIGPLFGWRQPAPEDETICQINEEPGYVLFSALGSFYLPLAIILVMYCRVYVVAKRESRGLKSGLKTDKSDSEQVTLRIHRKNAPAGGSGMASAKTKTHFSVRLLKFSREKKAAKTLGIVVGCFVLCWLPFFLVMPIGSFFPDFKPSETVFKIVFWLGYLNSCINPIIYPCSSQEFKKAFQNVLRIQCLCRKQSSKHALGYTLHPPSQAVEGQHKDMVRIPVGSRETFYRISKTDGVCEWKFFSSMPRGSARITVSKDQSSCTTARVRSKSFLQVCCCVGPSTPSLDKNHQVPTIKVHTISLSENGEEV
assay.name: Binding affinity to human adrenergic alpha1A receptor expressed in rat intact fibroblasts
For each record, write down the corresponding Ki.
One number for each entry, in nM.

Cc1cccc(Cc2nn(C[C@H]3CCCN3C)c(=O)c3ccccc23)c1 : 501
CCCCCc1nn(C[C@H]2CCCN2C)c(=O)c2ccccc12 : 501

Field: Ki. Fill in for each record below.
1. COc1ccc(Cc2nn(C[C@H]3CCCN3C)c(=O)c3ccccc23)cc1
2. O=c1c2ccccc2c(Cc2ccc(Cl)cc2)nn1C[C@@H]1CCCN1CCCCc1ccc(OCCCN2CCCCCC2)cc1

1: 126; 2: 31.6

* * *

For each record, write down the corresponding Vd.
assay.name: Volume of distribution at steady state in CD rat at 3 mg/kg, po and 1 mg/kg, iv
Type: ADME, organism-based
applied.conditions: in vivo, read-out: Vdss
Answers are plain numbers, in L/kg.

O=c1c2ccccc2c(Cc2ccc(Cl)cc2)nn1C[C@H]1CCCN1CCCCc1ccc(OCCCN2CCCCCC2)cc1 [GSK-1004723] : 3.9

For the next question, use this molecule.
Reported Vd, molecule CN1CCCC(n2nc(Cc3ccc(Cl)cc3)c3ccccc3c2=O)CC1 (racemic) [AZELASTINE] : ____
1.8

* * *

assay.name: Oral bioavailability in Beagle dog at 2 mg/kg
Type: ADME, organism-based, Canis lupus familiaris
applied.conditions: in vivo
measure: bioavailability (%)
Answers are plain numbers, in %.

Reported bioavailability, compound CN1CCCC(n2nc(Cc3ccc(Cl)cc3)c3ccccc3c2=O)CC1 (racemic) [AZELASTINE] : ____
46

* * *

assay.name: Clearance in Beagle dog at 2 mg/kg, po and 1 mg/kg, iv
Assay type: ADME, organism-based, Canis lupus familiaris
applied.conditions: in vivo
measure: clearance (mL/min/kg)
Give bare numbers, in mL/min/kg.

Reported clearance, molecule CN1CCCC(n2nc(Cc3ccc(Cl)cc3)c3ccccc3c2=O)CC1 (racemic) [AZELASTINE] : ____
22

* * *

study.system: Histamine H1 receptor (Homo sapiens)
Sequence (P35367 whole entry): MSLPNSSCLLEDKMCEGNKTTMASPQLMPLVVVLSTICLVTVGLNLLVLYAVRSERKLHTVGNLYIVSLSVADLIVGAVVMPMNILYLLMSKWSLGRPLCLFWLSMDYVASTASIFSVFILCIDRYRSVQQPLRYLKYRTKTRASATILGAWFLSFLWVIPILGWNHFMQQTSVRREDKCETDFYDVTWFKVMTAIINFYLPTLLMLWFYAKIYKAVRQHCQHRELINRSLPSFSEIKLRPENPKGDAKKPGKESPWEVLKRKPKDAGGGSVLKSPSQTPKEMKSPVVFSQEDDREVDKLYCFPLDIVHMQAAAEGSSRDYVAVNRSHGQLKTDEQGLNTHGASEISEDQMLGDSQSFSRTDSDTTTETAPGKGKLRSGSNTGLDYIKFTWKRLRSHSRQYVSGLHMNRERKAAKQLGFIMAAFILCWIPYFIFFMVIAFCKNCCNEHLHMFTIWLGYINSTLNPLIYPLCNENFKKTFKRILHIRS
assay.name: Antagonist activity at human recombinant histamine H1 receptor expressed in intact CHO cells assessed as inhibition of histamine-induced cellular calcium mobilization at 100 nM incubated for 30 mins measured after washout followed by repeat histamine challenge at intervals of 90 and 270 mins by FLIPR assay
Assay type: functional, cell-based
The source made the active and inactive calls. The rule behind the calls is not given here.
measure: inhibition

COc1ccc(Cc2nn(C[C@H]3CCCN3CCCCc3ccc(OCCCN4CCCCCC4)cc3)c(=O)c3ccccc23)cc1 : Active
O=c1c2ccccc2c(Cc2ccc(Cl)cc2)nn1C[C@H]1CCCN1CCCCCc1ccc(OCCCN2CCCCCC2)cc1 : Active
O=c1c2ccccc2c(Cc2ccc(O)cc2)nn1C[C@H]1CCCN1CCCCc1ccc(OCCCN2CCCCCC2)cc1 : Active
O=c1c2ccccc2c(Cc2ccc(Cl)cc2)nn1C[C@H]1CCCN1CCCCc1ccc(OCCCN2CCCCCC2)cc1 : Active
